EXPERIMENTAL_DETAILS: Blood levels in mice after subcutaneous administration
Format: in vivo
CONDITIONS_USED: mouse, sc 10 mg./kg., 30', read-out: Blood level
EXPERIMENTAL_ENDPOINT: concentration at 0.5 h (ng/mL)
Answer in ng/mL, number only, no unit symbol.

# input Any idea what its concentration at 0.5 h is? The compound is Cn1nnnc1SCC1=C(C(=O)O)N2C(=O)[C@@H](NC(=O)[C@H](O)c3ccccc3)[C@H]2SC1 [Cefamandole, cefamandole, reference compound]
# output 1500

# input Any idea what its concentration at 0.5 h is? The compound is O=C(O)Cn1nc2ccc(SCC3=C(C(=O)O)N4C(=O)C(NC(=O)[C@H](O)c5ccccc5)[C@H]4SC3)nn2c1=O (some centres unmarked)
# output 3000

====

EXPERIMENTAL_DETAILS: Stability in solution (remaining activity by paper disc assay)
Type: physicochemical
CONDITIONS_USED: 0.1 m nh4oh-nh4cl buffer; 0.02% solution, pH 9 (0.1 M NH4 OH--NH4 Cl buffer), 7 days
EXPERIMENTAL_ENDPOINT: remaining at 168 h (%)
Answer in %, number only, no unit symbol.

# input Any idea what its remaining at 168 h is? The molecule is O=C(O)Cn1nc2ccc(SCC3=C(C(=O)O)N4C(=O)C(NC(=O)[C@H](O)c5ccccc5)[C@H]4SC3)nn2c1=O (stereo partly shown)
# output 0

====

EXPERIMENTAL_DETAILS: Stability in solution (remaining activity by paper disc assay)
Format: physicochemical
CONDITIONS_USED: 0.1 m nh4oh-nh4cl buffer; 0.02% solution, pH 9 (0.1 M NH4 OH--NH4 Cl buffer), 1 day
EXPERIMENTAL_ENDPOINT: remaining at 24 h

# input Any idea what its remaining at 24 h is? The compound is O=C(O)Cn1nc2ccc(SCC3=C(C(=O)O)N4C(=O)C(NC(=O)[C@H](O)c5ccccc5)[C@H]4SC3)nn2c1=O (stereo partly shown)
# output 20%

====

So I've got a bunch of compounds here, and I need their dose excreted at 24 h values.
EXPERIMENTAL_DETAILS: Urinary recovery in rats
Assay type: in vivo
CONDITIONS_USED: rat, urine, sc 10 mg./kg., 0-24 Hrs.
Answer in %, number only, no unit symbol.

# input Any idea what its dose excreted at 24 h is? The compound is Cn1nnnc1SCC1=C(C(=O)O)N2C(=O)[C@@H](NC(=O)[C@H](O)c3ccccc3)[C@H]2SC1 [Cefamandole, cefamandole, reference compound]
# output 58.3

# input Any idea what its dose excreted at 24 h is? The compound is O=C(O)Cn1nc2ccc(SCC3=C(C(=O)O)N4C(=O)C(NC(=O)[C@H](O)c5ccccc5)[C@H]4SC3)nn2c1=O (some centres unmarked)
# output 38.8

====

EXPERIMENTAL_DETAILS: Stability in solution (remaining activity by paper disc assay)
Format: physicochemical
CONDITIONS_USED: 0.02% solution, pH 4 (0.1 M AcOH - NaOAc buffer), 7 days
Protocol: Stability of BB-[…] was determined in both a 10% and an 0.02% solution. The stability is indicated as the relative activity remaining in the test solution at given periods to the initial solution. The activity was assayed using paper discs on B. subtilis PCI 219 plate (pH 6).
EXPERIMENTAL_ENDPOINT: remaining at 168 h (%)
Answer in %, number only, no unit symbol.

# input Any idea what its remaining at 168 h is? The compound is O=C(O)Cn1nc2ccc(SCC3=C(C(=O)O)N4C(=O)C(NC(=O)[C@H](O)c5ccccc5)[C@H]4SC3)nn2c1=O (stereo partly shown)
# output 102
